These data points were gathered from the supplement of paper PMC6555819.

Test system: RXRa DBDmut IVT, anti-RXR (DBD mutation: RXRa K156A/R161A, NR concentration 90 nM)
TEST DETAILS: PBM binding z-score (relative to random genomic background probes); higher = stronger binding; sequences stand for … in GC…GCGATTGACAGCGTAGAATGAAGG
Output true for PBM binding z-score not less than 0.8; output false otherwise.

• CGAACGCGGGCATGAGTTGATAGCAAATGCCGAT = false
• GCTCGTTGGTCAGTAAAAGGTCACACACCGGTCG = false
• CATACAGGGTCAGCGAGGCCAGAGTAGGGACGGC = true
• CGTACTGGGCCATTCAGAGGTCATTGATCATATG = true
• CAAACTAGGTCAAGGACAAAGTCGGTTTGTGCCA = true
